Some compounds, each annotated with its measured pIC50.
- experimental_target: UniProt:P25116
- Sequence (P25116 22-425): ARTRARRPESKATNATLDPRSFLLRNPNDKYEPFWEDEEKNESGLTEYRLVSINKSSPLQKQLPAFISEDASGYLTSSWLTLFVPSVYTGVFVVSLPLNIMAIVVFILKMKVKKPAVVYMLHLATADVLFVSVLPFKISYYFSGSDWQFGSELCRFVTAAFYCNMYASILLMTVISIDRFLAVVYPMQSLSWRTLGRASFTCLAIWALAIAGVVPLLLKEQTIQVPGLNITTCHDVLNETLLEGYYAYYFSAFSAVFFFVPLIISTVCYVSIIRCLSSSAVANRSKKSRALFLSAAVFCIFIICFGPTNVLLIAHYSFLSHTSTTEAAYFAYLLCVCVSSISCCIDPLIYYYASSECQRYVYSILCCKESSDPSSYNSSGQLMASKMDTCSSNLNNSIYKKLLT
- test_name: PAR1 binding test (radioligand displacement, membrane preparation)
- recorded_conditions: human PAR1 expressed in High Five insect cell membranes; radioligand 20 nM; read-out: Inhibition of binding IC50
Where a name gives a salt, the structure may show the parent alone.
Expect pIC50 as a plain number equal to -log10 of the molar concentration.

compound | pIC50
COCCCOc1cc(C(=O)Cn2nc3c(C)cc(OCCO)nn3c2=N)cc(C(C)(C)C)c1 [Example 101, hydrochloride] | 5.85
CCC(CC)Oc1ccc2nn(CC(=O)c3cc(OCC4CC4)cc(C(C)(C)C)c3)c(=N)n2n1 [Example 26, hydrochloride] | 5.96
CCC(CC)Oc1cc(C)c2nn(CC(=O)c3cc(OCCO)cc(S(F)(F)(F)(F)F)c3)c(=N)n2n1 [Example 161, trifluoroacetic acid salt] | 6.44
CCN(CC)c1nn2c(=N)n(CC(=O)c3cc(OCCCO)c(OC)c(C(C)(C)C)c3)nc2c(C)c1C [Example 186, hydrochloride] | 6.92
CCOc1cc(CC)c2nn(CC(=O)c3cc(OCCCO)c(OC)c(C(C)(C)C)c3)c(=N)n2n1 [Example 174, hydrochloride] | 6.74

Q) Provide one value: measured pIC50 of CCOc1nn2c(=N)n(CC(=O)c3cc(OCCCO)c(OC)c(C(C)(C)C)c3)nc2c(CC)c1CC [Example 197, hydrochloride]
A) 6.83

Q) Please supply the value of reported pIC50 for the item Cc1c(OC(C)C)nn2c(=N)n(CC(=O)c3cc(OCCO)cc(C(C)(C)C)c3)nc2c1C [Example 215, hydrochloride]
A) 6.66

Q) Given CCOc1nn2c(=N)n(CC(=O)c3cc(OC)cc(S(F)(F)(F)(F)F)c3)nc2cc1N(CC)CC [Example 84, trifluoroacetic acid salt] , respond with its pIC50.
A) 5.01

Q) Please report the measured pIC50 for CCOc1nn2c(=N)n(CC(=O)c3cc(C(C)(C)C)cc(C(C)(C)OC)c3)nc2c(C)c1C [Example 230, hydrochloride]
A) 6.63

Q) Give the measured pIC50 for CCOc1nn2c(=N)n(CC(=O)c3cc(OCCCF)cc(C(C)(C)C)c3)nc2c(C)c1C [Example 222, hydrochloride]
A) 6.38

Q) Please report pIC50 for the following compound: CCOc1nn2c(=N)n(CC(=O)c3cc(N4CCOCC4)c(OC)c(C(C)(C)C)c3)nc2cc1CC [Example 144, trifluoroacetic acid salt]
A) 6.08

Q) Note pIC50 for the compound shown: CC(C)Oc1cc(OC(C)C)c2nn(CC(=O)c3cc(OCCO)cc(C(C)(C)C)c3)c(=N)n2n1 [Example 240, hydrochloride]
A) 6.32

Q) In one line, give reported pIC50 of the entry CCC(CC)Oc1ccc2nn(CC(=O)c3cc(N4CCOCC4)c(OC)c(C(C)(C)C)c3)c(=N)n2n1 [Example 14, trifluoroacetic acid salt] .
A) 6.55
